# assayedTarget: human PRMT6 (Homo sapiens)
# Construct: Flag-PRMT6-His; made in house; host or cells: HEK 293F cells (BacMam baculovirus)
# experimentDescription: PRMT6 Biochemical Assay (3H-SAM Flashplate, peptide substrate)
# conditionDetails: Biochemical IC50 PRMT6, single experiment or average of multiple experiments
I'd be grateful if you could share measured IC50 for these entries.
Give the number; nM is assumed, so skip it.

Noted for CCn1ncc(CN(C)CCNC)c1-c1ccc(OC(C)C)cc1 : its IC50 reads 102

Noted for CN(CCN)Cc1c[nH]nc1-c1ccc(Cl)cc1 : its IC50 reads 5.61

Noted for CN(CCN)Cc1c[nH]nc1-c1ccc(Cl)c(F)c1 : its IC50 reads 3.18

Noted for CNCCN(C)Cc1n[nH]cc1-c1ccc(Oc2cccc(C(=O)N(C)C)c2)cc1 : its IC50 reads 2.73

Noted for CNCCN(C)Cc1c[nH]nc1-c1ccc(O)cc1 : its IC50 reads 18.5

---

# assayedTarget: human PRMT6 (Homo sapiens, UniProt Q96LA8)
# Construct: Flag-PRMT6-His; made in house; host or cells: HEK 293F cells (BacMam baculovirus)
# Sequence (Q96LA8 with tags, fused parts or gaps): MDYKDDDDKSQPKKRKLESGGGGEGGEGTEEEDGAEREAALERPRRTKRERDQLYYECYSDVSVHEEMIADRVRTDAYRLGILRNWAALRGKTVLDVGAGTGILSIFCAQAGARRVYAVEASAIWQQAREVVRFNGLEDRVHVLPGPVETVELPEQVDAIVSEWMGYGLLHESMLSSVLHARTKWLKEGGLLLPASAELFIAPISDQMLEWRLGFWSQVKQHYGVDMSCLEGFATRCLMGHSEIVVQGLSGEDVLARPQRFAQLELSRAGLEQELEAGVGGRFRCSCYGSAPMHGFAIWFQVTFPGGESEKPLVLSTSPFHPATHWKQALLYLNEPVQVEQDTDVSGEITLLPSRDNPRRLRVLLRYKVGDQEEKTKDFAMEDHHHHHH
# experimentDescription: PRMT6 Biochemical Assay (3H-SAM Flashplate, peptide substrate)
# conditionDetails: Biochemical IC50 PRMT6
measuredEndpoint: IC50

Noted for COCCn1cnc(-c2ccc(C#N)cc2)c1CN(C)CCN : its IC50 reads > 10000 nM

Noted for CN(CCN)Cc1cnn(CC2COC2)c1-c1ccc(F)cc1 : its IC50 reads > 10000 nM

Noted for CNCCN(C)Cc1c[nH]nc1-c1ccc(OC(COC)COC)cc1 : its IC50 reads < 100 nM

Noted for CNCCN(C)Cc1c[nH]nc1-c1ccc(OC(CO)C(C)C)cc1 (centres unmarked) : its IC50 reads < 100 nM

Noted for CNCCN(C)Cc1c[nH]nc1-c1ccc(OC2CCOCC2)c(F)c1 : its IC50 reads < 100 nM

Noted for CNCCN(C)Cc1c[nH]nc1-c1ccc(Oc2cncnc2)cc1 : its IC50 reads < 100 nM

Noted for CNCCN(C)Cc1c[nH]nc1-c1ccc(OCC2CCOCC2)cc1 : its IC50 reads < 100 nM

Noted for CN(CCN)Cc1c(-c2ccc(C#N)cc2)cnn1C : its IC50 reads > 10000 nM

Noted for CNCCN(C)Cc1c[nH]nc1-c1ccc(NC(C)C)cc1 : its IC50 reads < 100 nM

Noted for CNCCN(C)Cc1c[nH]nc1-c1ccc(OC(COC)CC(C)C)cc1 (centres unmarked) : its IC50 reads < 100 nM

Noted for CN(CCN1CCCC1)Cc1c[nH]nc1-c1ccc(C#N)cc1 : its IC50 reads > 10000 nM

---

# Tested on: mono-methyl arginine in RKO cells
# experimentDescription: RKO Methylation Assay, In Cell Western (ICW) for mono-methyl arginine and DNA content
# Type: cell-based
# conditionDetails: Homo sapiens, RKO, 72 h, RKO cells, 72 hours, mono-methyl arginine, percent activation; single experiment or average of multiple experiments; read-out: EC30 (In Cell Western data, Numerical)
I'd be grateful if you could share measured EC30 for these entries.

Noted for CN(CCN)Cc1c[nH]nc1-c1ccc(N2CCNCC2)cc1 [Compound 82] : its EC30 reads > 20 µM

Noted for CCN(CC)C(=O)c1ccc(-c2n[nH]cc2CN(C)CCN)cc1 [Compound 143] : its EC30 reads > 20 µM

Noted for CNCCN(C)Cc1n[nH]cc1-c1ccc(Oc2cccc(C(C)C)c2)cc1 [Compound 277] : its EC30 reads > 20 µM

Noted for NCCN(CCO)Cc1c[nH]nc1-c1ccc(F)cc1 [Compound 171] : its EC30 reads > 20 µM

Noted for CCNC(=O)c1ccc(-c2n[nH]cc2CN(C)CCN)cc1 [Compound 136] : its EC30 reads > 20 µM

Noted for C=C(C)C(=O)Nc1cccc(-c2[nH]ncc2CN(C)CCNC)c1 [Compound 257] : its EC30 reads > 20 µM

Noted for CN(CCN1CCCC1)Cc1c[nH]nc1-c1ccc(C#N)cc1 [Compound 139] : its EC30 reads > 20 µM

Noted for CCNC(=O)c1cccc(-c2n[nH]cc2CN(C)CCN)c1 [Compound 197] : its EC30 reads > 20 µM

Noted for COCCn1cnc(-c2ccc(C#N)cc2)c1CN(C)CCN [Compound 223] : its EC30 reads > 20 µM

Noted for Cc1ccc(-c2n[nH]cc2CN(C)CCN)c(Cl)c1 [Compound 90] : its EC30 reads 10.4 µM

Noted for CNCCN(C)Cc1c[nH]nc1-c1ccc(Cl)c(F)c1 [Compound 182] : its EC30 reads 0.179 µM

Noted for CN(CCN)Cc1c[nH]nc1-c1ccc(C2CC2)cc1 [Compound 116] : its EC30 reads 1.41 µM

Noted for CN(CCN)Cc1cn(C)nc1-c1ccc(F)cc1 [Compound 3] : its EC30 reads 16.2 µM

Noted for CNCCN(C)Cc1cn(C)nc1-c1ccc(OC(C)C)cc1 [Compound 243] : its EC30 reads 0.809 µM

Noted for CN(CCN)Cc1c[nH]nc1-c1ccc2c(c1)NC(=O)CO2 [Compound 173] : its EC30 reads > 20 µM
